Data origin, for the record: patent US11339165B2

- Assay info: Cytotoxicity in HeLa cells (ATP content, ATPlite kit)
- Condition details: human
Reported values of CC50 at 3 days for individual entries
Field: numeric (µM). Do not append units.

C[C@@H]1c2ccccc2CCN1C(=O)c1cc(C2CC2)n2nc(-c3ccc(N4CC[C@H](NP(C)(C)=O)C4)cc3F)cc2n1 [Compound 31] = 39.1

Exercise: Output CC50 at 3 days of C[C@@H]1c2ccccc2CCN1C(=O)c1cc(C2CC2)n2nc(-c3ccc(N4CC[C@@H](NP(C)(C)=O)C4)cc3F)cc2n1 [Compound 30]
Key: 33.9

====

- Assay info: in vitro
- Condition details: human, TOX HELA CC50 (μM)
Recorded metric: CC50 at 3 days

Reference set (4 entries):
CNC(=O)C1CCCN(c2ccc(-c3cc4nc(C(=O)N5CCc6ccccc6[C@H]5C)cc(C5CC5)n4n3)c(F)c2)C1 (stereo partly drawn) = > 100 µM
C[C@@H]1c2ccccc2CCN1C(=O)c1cc(C2CC2)n2nc(-c3c(O)cc(N4CC[C@H](C(N)=O)C4)cc3F)cc2n1 = 83.6 µM
C[C@@H]1c2ccccc2CCN1C(=O)c1cc(C2CC2)n2nc(-c3ccc(N4CC(C(N)=O)C4)cc3F)cc2n1 = 28.3 µM
C[C@@H]1c2ccccc2CCN1C(=O)c1cc(C2CC2)n2nc(-c3ccc(N4CC[C@H](C(=O)N(C)C)C4)cc3F)cc2n1 = > 100 µM

Exercise: Output CC50 at 3 days of "CNC(=O)O[C@@H]1CCN(c2ccc(-c3cc4nc(C(=O)N5CCc6ccccc6[C@H]5C)cc(C5CC5)n4n3)c(F)c2)C1"
Key: > 100 µM

Exercise: Output CC50 at 3 days of C[C@@H]1c2ccccc2CCN1C(=O)c1cc(C2CC2)n2nc(-c3ccc(N4CCC(S(=O)(=O)N(C)C)C4)cc3F)cc2n1 (stereo partly drawn)
Key: > 100 µM

====

- Test system: rgRSV224 virus
- Assay info: Antiviral activity: rgRSV224 (GFP) replication in HeLa cells
- Assay type: cell-based, respiratory syncytial virus (RSV)
- Condition details: human respiratory syncytial virus, HeLa, 72 h, read-out: RSV HELA EC50 (μM), rgRSV224 virus (MOI=1), HeLa cells, GFP expression three days post-virus exposure
Recorded metric: EC50 (µM)
Field: numeric (µM). Do not append units.

C[C@@H]1c2ccsc2CCN1C(=O)c1cc(C2CC2)n2nc(-c3ccc(N4CC[C@](C)(C(N)=O)C4)cc3F)cc2n1 (single isomer, unassigned) = 0.02
C[C@@H]1c2ccccc2CCN1C(=O)c1cc(C2CC2)n2nc(-c3ccc(N4C[C@@H](O)[C@@H](F)C4)cc3F)cc2n1 (relative stereo) = 0.017
C[C@@H]1c2ccccc2CCN1C(=O)c1cc(C2CC2)n2nc(-c3ccc(N4C[C@@H](O)[C@H](O)C4)cc3F)cc2n1 = 0.011
C[C@@H]1c2ccccc2CCN1C(=O)c1cc(C2CC2)n2nc(-c3ccc(N4CC[C@H](NCC(F)(F)F)C4)cc3F)cc2n1 = 0.19

Exercise: For rgRSV224 virus, give EC50 of the listed compound: "COc1ccc(-c2cc(C(=O)N3CCc4ccccc4[C@H]3C)nc3cc(-c4ccc(N5CC[C@H](C(N)=O)C5)cc4F)nn23)cc1"
Key: 0.023
